IC50 for assorted binders
target.or.test.system: T1, wild-type human PTH/PTHrP receptor (hP1R-WT) (human, UniProt Q03431 27-593)
T1 construct: whole, on cells; HKRK-B28 cells express ~280,000 receptors per cell; also called PTH-1 receptor; PTH-1R
T1 sequence (looked up): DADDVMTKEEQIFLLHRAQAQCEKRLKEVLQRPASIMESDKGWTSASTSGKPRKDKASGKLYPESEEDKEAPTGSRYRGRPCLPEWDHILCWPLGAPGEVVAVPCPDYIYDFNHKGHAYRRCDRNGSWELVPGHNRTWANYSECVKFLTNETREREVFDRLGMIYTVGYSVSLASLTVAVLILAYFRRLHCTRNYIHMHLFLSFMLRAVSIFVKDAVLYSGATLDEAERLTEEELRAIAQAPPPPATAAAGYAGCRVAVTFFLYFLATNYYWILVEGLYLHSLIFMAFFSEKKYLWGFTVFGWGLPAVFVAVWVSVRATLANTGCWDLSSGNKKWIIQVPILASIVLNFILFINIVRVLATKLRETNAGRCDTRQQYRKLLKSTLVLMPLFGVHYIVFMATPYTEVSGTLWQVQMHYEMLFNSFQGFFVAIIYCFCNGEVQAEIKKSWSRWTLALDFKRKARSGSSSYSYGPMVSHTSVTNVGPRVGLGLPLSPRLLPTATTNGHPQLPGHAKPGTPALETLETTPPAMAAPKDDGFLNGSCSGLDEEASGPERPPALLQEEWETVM
procedure.text: competition binding, 125I-[M]PTH(1-21) tracer, HKRK-B28 cells, 4 h at 4 C
Square brackets hold non-standard residues; d marks the D form. Ends that are not written are not given here. hArg = N=C(N)NCCCC[C@H](N)C(=O)O; Aib = CC(C)(N)C(=O)O
metric.name: IC50 (nM)

| binder | reported.measurement |
| --- | --- |
| AVAEIQ[Aib]MHQ[hArg]AKW-NH2 (N-terminus assumed; SMILES CC[C@H](C)[C@H](NC(=O)[C@H](CCC(=O)O)NC(=O)[C@H](C)NC(=O)[C@@H](NC(=O)[C@H](C)N)C(C)C)C(=O)N[C@@H](CCC(N)=O)C(=O)NC(C)(C)C(=O)N[C@@H](CCSC)C(=O)N[C@@H](Cc1c[nH]cn1)C(=O)N[C@@H](CCC(N)=O)C(=O)N[C@@H](CCCCNC(=N)N)C(=O)N[C@@H](C)C(=O)N[C@@H](CCCCN)C(=O)N[C@@H](Cc1c[nH]c2ccccc12)C(N)=O, Aib scan of [M]PTH(1-14); also called 628 Aib-7) [[Aib^7,M]PTH(1-14)] | 490000 |
| [Aib]VAEIQLMHQ[hArg]AKW-NH2 (N-terminus assumed; SMILES CC[C@H](C)[C@H](NC(=O)[C@H](CCC(=O)O)NC(=O)[C@H](C)NC(=O)[C@@H](NC(=O)C(C)(C)N)C(C)C)C(=O)N[C@@H](CCC(N)=O)C(=O)N[C@@H](CC(C)C)C(=O)N[C@@H](CCSC)C(=O)N[C@@H](Cc1c[nH]cn1)C(=O)N[C@@H](CCC(N)=O)C(=O)N[C@@H](CCCCNC(=N)N)C(=O)N[C@@H](C)C(=O)N[C@@H](CCCCN)C(=O)N[C@@H](Cc1c[nH]c2ccccc12)C(N)=O, also called 622 Aib-1) [[Aib^1,M]PTH(1-14)] | 980 |
| [Aib]V[Aib]EIQLMHQ[hArg]AKW-NH2 (N-terminus assumed; SMILES CC[C@H](C)[C@H](NC(=O)[C@H](CCC(=O)O)NC(=O)C(C)(C)NC(=O)[C@@H](NC(=O)C(C)(C)N)C(C)C)C(=O)N[C@@H](CCC(N)=O)C(=O)N[C@@H](CC(C)C)C(=O)N[C@@H](CCSC)C(=O)N[C@@H](Cc1c[nH]cn1)C(=O)N[C@@H](CCC(N)=O)C(=O)N[C@@H](CCCCNC(=N)N)C(=O)N[C@@H](C)C(=O)N[C@@H](CCCCN)C(=O)N[C@@H](Cc1c[nH]c2ccccc12)C(N)=O, also called 671 [Aib^1,3, M]PTH (1-14); 671 [Aib^1,3M]PTH(1-14)) [[Aib^1,3,M]PTH(1-14)] | 130 |
